Tested on: MS2 coat protein
assay_explanation: apparent Kd, MS2 coat protein; higher = weaker binding; RNA-MaP array; theophylline 2 mM where present
settings: designed as: ON switch for theophylline; no ligand
Y means recorded apparent Kd is 100 nM or above; N means it is below 100 nM.

Qu. Is the recorded value of apparent Kd equal to or greater than 100 nM for this sequence? "UGUUUGGUGCGCGAGUGUUGGAUAAUUGAUACCAGUGUAGAUGUGCGCCCUUGGCAGCGAAUCCUAACAUGAGGAUCACCCAUGU"
Ans. N

Qu. Try this sequence next: "UUAAUGGAGCUUUAAUUUACGAUUUCUGAUACCAGUGUUUCAUUUCACCCUUGGCAGCAGUGACAUGAGGAUCACCCAUGUAAUA"
Ans. N

Qu. Try this sequence too: "CCUGCGUUUCUUUUCUUUCGCAGGAAUGAUACCAGUAGGGAAACCUACCCUUGGCAGCAUGGGACAUGAGGAUCACCCAUGUUUU"
Ans. Y

Qu. Another sequence: "GCACCAGGUACGGAUACCAGCUGCCAGAGAUACAUGAGGAUCACCCAUGUGACCUGAUUUAGCCCUUGGCAGCUGUACCUGGUGC"
Ans. Y

Qu. "UGAUCCUGCAGGGAUACCAGCGCCGCUUGAUAACUGUGCACAUGAGGAUCACCCAUGUAGCGCCCUUGGCAGCCCAGCUAGAGGG" , same question.
Ans. N

Qu. And "UCGUGUGUUUCGGAUACCAGUGAAAUCGAUACAUGAGGAUCACCCAUGUGAGAGGAUGUACACCCUUGGCAGCUGUCUGUAUCUG" ?
Ans. N

Qu. And the next one, "GGGUGCGGGAUAGAUACCAGUGCCUUAAAAUAGGCACAUGAGGAUCACCCAUGUACCGGGCGCCCUUGGCAGCUAGUACCAUCCA" ?
Ans. Y
